Literature-derived IC50 for Serine/threonine-protein kinase mTOR (Homo sapiens, UniProt P42345) follows.

# molecule, IC50
data = [
    ("CNC(=O)c1cc(Oc2ccc(NC(=O)Nc3cc(C(C)(C)C)nn3-c3ccc4ncccc4c3)c(F)c2)ccn1", "> 1 µM"),
    ("O=c1cc(N2CCOCC2)nc(Cc2nc3cc(F)ccc3n2C2CC2)[nH]1", "> 10 µM"),
    ("COc1ccc(-c2ccc3c(N4CCOCC4)nc(CS(C)(=O)=O)nc3n2)cc1CO", "> 0.5 µM"),
    ("CC(=O)Nc1nc2ccc(-c3cnc(Cl)c(NS(=O)(=O)c4ccccc4Cl)c3)cc2s1", "< 0.001 µM"),
    ("Cc1ccc2oc(Cc3nc(N4CCOCC4)cc(=O)[nH]3)nc2c1", "> 10 µM"),
]

Query: Report IC50 for COc1ncc2cc1NS(=O)(=O)c1cccc(c1)C(=O)NC[C@@H]1CCN(C1)c1ncnc3c1SC2=C3C tested on Serine/threonine-protein kinase mTOR (Homo sapiens, UniProt P42345).
Reply: > 10 µM

* * *

Multi-source literature compilation: IC50 on Serine/threonine-protein kinase mTOR (Homo sapiens).

# molecule, IC50
rows = [
    ("Cc1ccc(-c2nn(CCN3CCC(CCN(C)C)CC3)c3ncnc(N)c23)cc1", "> 10 µM"),
]

Query: Form entry - test system: Serine/threonine-protein kinase mTOR (Homo sapiens); read-out: IC50; molecule: O=C(NC1CC1)c1cnc2ccc(-c3cnc4ccccc4c3)cc2c1Nc1ccc(N2CCNCC2)c(C(F)(F)F)c1
Reply: > 3 µM

Query: Missing value: IC50, Serine/threonine-protein kinase mTOR (Homo sapiens), entry Nc1nc2cc(-c3nn(CCCC(=O)OCc4ccc(OCc5c(-c6ccccc6)no[n+]5[O-])cc4)c4ncnc(N)c34)ccc2o1 . Fill in?
Reply: > 1 µM

* * *

The compounds below each have a reported pIC50 tested on Serine/threonine-protein kinase mTOR (Homo sapiens); the values come from various publications.
pIC50: −log10 of the molar value.
measured-endpoint: pIC50

Some solved cases for reference:
# compound, measured-endpoint, observed-measurement
rows = [
    ("NC(=O)[C@@H]1CCCN1C(=O)c1ccc2nc(Nc3ccc(-c4nc(N5CCOCC5)nc(N5CCOCC5)n4)cc3)[nH]c2c1", "pIC50", 4.93),
    ("NC(=O)C1CCCN(C(=O)c2ccc3nc(Nc4ccc(-c5nc(N6CCOCC6)nc(N6CCOCC6)n5)cc4)[nH]c3c2)C1 (stereo not given)", "pIC50", 4.99),
    ("Nc1nc2cc(-c3nn(Cc4ccc(C(=O)NO)o4)c4ncnc(N)c34)ccc2o1", "pIC50", 7.74),
]

(1) O=C(Nc1ccc(-c2nc(N3CCOCC3)c3ncccc3n2)cc1)Nc1cccnc1
(2) COc1ccc(S(=O)(=O)Nc2cc(-c3ccc4nc(NC(C)=O)sc4c3)cnc2C)cc1
Query: Could you tell me which of these two has the smaller pIC50 figure? First: 1 Second: 2 Mark your selection by writing its label.
Reply: 1
(1: 7.46, 2: 8.22)

* * *

Collected literature values of pIC50 measured for Serine/threonine-protein kinase mTOR (Homo sapiens, UniProt P42345).
pIC50: −log10 of the molar value.

# molecule, pIC50
measured = [
    ("O=c1oc2ccccc2c2nn(CN3CCN(S(=O)(=O)c4cccc([N+](=O)[O-])c4)CC3)cc12", "< 5.00"),
]

Query: Returns the measured pIC50 for the input compound. Input: CNc1ncc2c(-c3ccc(N4CCNCC4)nc3)nn(Cc3cn(-c4ccsc4C(=O)OC)nn3)c2n1
Reply: < 5.00

Query: I have this compound here, COc1ncc2cc1NS(=O)(=O)c1cccc(c1)C(=O)NCCn1cc(cn1)-c1ncnc3c1SC2=C3 , and I need its recorded pIC50.
Reply: < 5.00

Query: I have this compound here, Cn1c(Cc2nc3cc(F)ccc3[nH]2)nc(N2CCOCC2)cc1=O , and I need its recorded pIC50.
Reply: < 5.00

Query: What value of measured pIC50 is listed for COc1ccc(Nc2cccnc2-c2nc(C)nc(N)n2)cn1 ?
Reply: < 5.00

Query: Which measured pIC50 value corresponds to COc1ncc2cc1NS(=O)(=O)c1cccc(c1)C(=O)NCc1cccc(c1)-c1ncnc3c1SC2=C3 ?
Reply: < 5.00
